- assay.overview: gradient 5% acetonitrile 3 min, to 50% in 2 min, to 85% in 15 min, held 3 min, 100 µL/min
- measurement.parameters: column: Zorbax Extend-C18 2.1 x 50 mm; eluents: water / acetonitrile, 0.1% formic acid
measurement.name: RP-LC retention time (s)

{"compound": "CN(C)C/C=C(/c1ccc(Br)cc1)c1cccnc1", "RP-LC retention time / s": 664}
{"compound": "CC1=C(C(=O)N2CCOCC2)C(c2ccc(F)c(Br)c2)C2=C(CCCC2=O)N1 (configuration not stated)", "RP-LC retention time / s": 659}
{"compound": "O=C(NC1CCN(c2ccc(=O)[nH]n2)C1)c1ccc(F)c(Cl)c1 (configuration not stated)", "RP-LC retention time / s": 648}
{"compound": "COc1ccc(CNC(=O)Cn2c(N)nc(C)cc2=O)cc1", "RP-LC retention time / s": 603}
{"compound": "Cc1ccc2c(c1)N(c1ccc(N(C)C)cc1)C=C(C(=O)N1CCCC1)S2(=O)=O", "RP-LC retention time / s": 874}
{"compound": "O=C(Nc1cccc(-c2nnc3n2CCCC3)c1)C1CC1", "RP-LC retention time / s": 601}
{"compound": "CC(C)c1nc(NC(=O)Cn2nc3c(cc2=O)CCCCC3)n[nH]1", "RP-LC retention time / s": 632}
